Source: PubChem BioAssay

assay: inhibitors of TNFa-induced NFkB p65 translocation, primary screen, imaging, HUVEC, MLSMR starter and 10KST1 sets (AID 438); details: HUVEC TNFa-induced p65 nuclear translocation; at 2 µM, stronger effect = higher value, 0% TNFa-plus-vehicle, 100% no-TNFa wells;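 further: compound added about 3h40 before a 20 min TNFalpha stimulation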;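 on inhibition: signal is the nuclear over cytoplasmic p65 intensity ratio per well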
endpoint_label: inhibition (%)
Answers are plain numbers, in %.

# per-item lookup of inhibition; items listed below
1. Nc1c(Br)cc2oc(-c3ccccc3)nc2c1Br
2. N#CC1=C(SCc2ccccc2)NC2=C(C(=O)CCC2)C1c1ccc2c(c1)OCO2 (stereo unspecified)
3. COc1ccc(/C(O)=C2/C(=O)C(=O)N(CCN3CCOCC3)C2c2ccccn2)cc1OC (stereo unspecified)

-- reply
1: -3.4; 2: -28.9; 3: -7.4

Report inhibition for each item below.
1. COc1ccc(S(=O)(=O)N2CCC(N3CCCCC3)CC2)cc1
2. COc1ccc(OC(=O)c2cc3ccccc3o2)cc1
3. O=C(O)c1ccc(COc2c(F)c(F)c(F)c(F)c2F)o1
4. C=CCn1cnc2c(c1=O)c1nc3ccccc3nc1n2-c1ccc(Cl)cc1

-- reply
[-22.7, -1.1, -12.2, -0.2]

----------
target: Voltage-gated potassium channel subunit beta-2 (Rattus norvegicus); assay: KvBeta enzyme negative modulators, primary screen, biochemical, NADPH fluorescence (AID 622); details: recombinant KvBeta, 4-cyanobenzaldehyde reduction, at 10 µM, stronger effect = higher value;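 further: slope of raw intensity against log time taken from 70 to 1610 s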
Task for the reader: assign each of the following molecules its reported fluorescence slope.
Numbers only.

# annotated cases, reported fluorescence slope shown
CC(=O)[C@@]1(O)CC[C@H]2[C@@H]3C[C@H](C)C4=CC(=O)CC[C@]4(C)[C@H]3CC[C@@]21C; -0.486
Cc1cc(C(F)(F)F)c(C#N)c(SCC(=O)NC2CC2)n1; -0.514

Now for another entry.
-- ask Which fluorescence slope value is on record for `CC(=O)O[C@]1(C(C)=O)CC[C@H]2[C@@H]3C=C(C)C4=CC(=O)CC[C@]4(C)[C@H]3CC[C@@]21C` ?
-- reply -0.492

----------
experiment: inhibitors of TNFa-induced NFkB p65 translocation, primary screen, imaging, HUVEC, MLSMR starter and 10KST1 sets (AID 438); settings: HUVEC TNFa-induced p65 nuclear translocation; measured here: nuclei count (cytotoxicity indicator), at 2.08 µM;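 further: compound added about 3h40 before a 20 min TNFalpha stimulation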
endpoint_label: cell count
Numbers only.

Some solved entries appear below for comparison.
CCO/C([O-])=N/c1c[n+](N2CCOCC2)no1; 669
CCSc1nnc(N(CCC(=O)O)CCC(=O)O)s1; 371

Answer for every listed entry: what is its cell count? The entries follow.
1. O=c1[nH]nc2n1CCCCC2
2. CC(=O)OCC(=O)[C@@]1(O)CC[C@H]2[C@@H]3CCC4=CC(=O)CC[C@]4(C)[C@H]3[C@@H](O)C[C@@]21C
3. c1ccc(SCc2nc3ccccc3[nH]2)nc1
4. COc1cccc(Cn2c(NCC(C)C)nc3c2c(=O)n(C)c(=O)n3C)c1
5. CNS(=O)(=O)c1cccc2nsnc12
6. Cc1ccc(C)n1Cc1ccc(C(=O)O)cc1
7. CCCSc1nc(C)c(CC(=O)O)c(=O)[nH]1

-- reply
1: 530; 2: 652; 3: 407; 4: 341; 5: 592; 6: 645; 7: 381

Working through the 7 molecules below one at a time, give cell count for each.
1. CCN(CCCCOC(=O)c1ccc(OC)c(OC)c1)C(C)Cc1ccc(OC)cc1 (configuration not stated)
2. COc1ccc(NCc2cc3ccccc3[nH]c2=O)cc1
3. Cc1cc(NC(=O)CSc2nc(-c3cccnc3)ccc2C#N)no1
4. COc1cccc(C2C(C(=O)c3cc4ccccc4o3)=C(O)C(=O)N2CCN(C)C)c1OC (configuration not stated)
5. c1csc(-c2nn3c(C4CCCCC4)nnc3s2)c1
6. COc1ccc(/C=N/n2cncn2)cc1COc1ccc(NC(C)=O)cc1
7. Cc1csc(NC(=O)CSc2nsc(SCC(=O)Nc3nc(C)cs3)c2C#N)n1

-- reply
1. 635
2. 254
3. 733
4. 516
5. 623
6. 307
7. 655

-- ask cell count lookup needed for `COC(=O)CN(c1nc(C)cc(OC)n1)S(=O)(=O)c1ccccc1` , thanks.
-- reply 568

----------
biological target: Voltage-gated potassium channel subunit beta-2 (Rattus norvegicus); assay: KvBeta positive modulators, primary screen, biochemical, NADPH fluorescence (AID 623); conditions: Recombinant KvBeta, NADPH fluorescence decrease slope, 10 min; at 10 µM; stronger effect = lower value;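 further: fluorescence intensity change per second fitted from 20 to 320 s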
endpoint_label: NADPH fluorescence slope
Answers are plain numbers.

Observe how each entry below is paired with its result.
Cc1cccc2c1NC(C)CC2C (stereo not given); -6.6e-06
CC(=O)NS(=O)(=O)c1ccc(N)cc1; -4.5e-05
COC(=O)C1=C(C)N=C2SC(C)C(=O)N2C1c1ccc(C(=O)OC)cc1 (stereo not given); -4.8e-05
COc1cc(C2C(C#N)=C(N)Oc3cc(C)n(CCN4CCOCC4)c(=O)c32)cc(OC)c1OC (stereo not given); -4.4e-05

For the next question, use this compound.
-- ask For the compound `Nc1ccc(S(=O)(=O)Nc2ncccn2)cc1` , what NADPH fluorescence slope is on record?
-- reply -6.3e-05

----------
biological target: Voltage-gated potassium channel subunit beta-2 (Rattus norvegicus) (UniProt P62483); test: KvBeta enzyme negative modulators, primary screen, biochemical, NADPH fluorescence (AID 622); conditions: recombinant KvBeta, 4-cyanobenzaldehyde reduction, at 10 µM, stronger effect = higher value;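 further: slope of raw intensity against log time taken from 70 to 1610 s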
Sequence (P62483 whole entry, looked up): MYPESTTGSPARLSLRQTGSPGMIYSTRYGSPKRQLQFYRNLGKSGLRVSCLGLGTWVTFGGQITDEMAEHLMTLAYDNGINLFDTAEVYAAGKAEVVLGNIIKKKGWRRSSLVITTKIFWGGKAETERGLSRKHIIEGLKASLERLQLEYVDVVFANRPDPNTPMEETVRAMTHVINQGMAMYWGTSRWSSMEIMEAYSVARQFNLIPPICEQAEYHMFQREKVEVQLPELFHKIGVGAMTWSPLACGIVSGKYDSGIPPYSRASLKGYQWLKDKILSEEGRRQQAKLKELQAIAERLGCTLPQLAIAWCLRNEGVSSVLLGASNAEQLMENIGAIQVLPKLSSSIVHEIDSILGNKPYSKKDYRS
For each entry below, report its fluorescence slope value.
One number for each entry.

Examples with their reported fluorescence slope follow.
Cc1ccc2[nH]c3c(NCCN4CCOCC4)ncnc3c2c1; -0.475
CC1CCCCN1C(=O)C12CCC(C)(/C(=N/O)C1)C2(C)C (stereo not drawn); -0.407
COc1ccc(S(=O)(=O)N2CCC(N3CCCCC3)CC2)cc1; -0.314
CCOC(=O)CC1=C(C(=O)OCC)C(c2ccc(OC)c(OC)c2)C(C#N)=C(N)O1 (stereo not drawn); -0.359

Could you tell me fluorescence slope for each of these compounds? They are listed below.
1. COc1ccc(NS(=O)(=O)c2ccc(N)cc2)nn1
2. Cc1ccc(SCc2nnc(N)s2)cc1
3. CN(C)CC(O)COc1cccc(OCC(O)CN(C)C)c1 (stereo not drawn)
4. CCSc1nnc(N(CCC(=O)O)CCC(=O)O)s1

-- reply
-0.412
-0.396
-0.4
-0.422

----------
assay: inhibitors of Chlamydomonas gravitaxis, primary screen, whole organism, Chlamydomonas reinhardtii, WT vs cilia-less mutant, absorbance, 96-well (AID 463189); settings: OD600 absorbance, 2 days, at 10 µM, stronger effect = higher value;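 further: 0% = wild type cc124 cells in DMSO and 100% = ciliumless bld1 mutant cells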
endpoint_label: inhibition (%)
Give bare numbers, in %.

Some molecules with known inhibition results, for comparison:
C=CCSc1nnc2n(CCc3ccccc3)c(=O)c3c4c(sc3n12)COC(C)(C)C4; 28.7
Cc1cc(C)n(C(=O)CN2C(=O)CCC2=O)n1; 17.3

Go through the items and report each one's inhibition.
1. CCOC(=O)c1n[nH]c2ccccc12
2. Fc1ccc2[nH]c3c(N4CCN(c5ccccc5)CC4)ncnc3c2c1
3. CCOC(=O)C1CCN(c2nc3ccccc3nc2C(C#N)C(=O)OCCOC)CC1 (configuration not stated)
4. COC(=O)c1[nH]c(C)c(/C(O)=C2\C(=O)C(=O)N(CCN3CCOCC3)C2c2cccnc2)c1C (configuration not stated)
5. O=C(COc1ccccc1)Nc1ccc(-c2nnc(-c3ccco3)o2)cc1

-- reply
1: -13; 2: -1.66; 3: -22.9; 4: 5.4; 5: -15.4

----------
Can you tell me fluorescence slope for the items I'm about to list?
biological target: Voltage-gated potassium channel subunit beta-2 (Rattus norvegicus) (UniProt P62483); test: KvBeta enzyme negative modulators, primary screen, biochemical, NADPH fluorescence (AID 622); settings: recombinant KvBeta, 4-cyanobenzaldehyde reduction, at 10 µM, stronger effect = higher value;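 further: slope of raw intensity against log time taken from 70 to 1610 s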
Numbers only.

Previously resolved entries follow.
CC(C)(C)OC(=O)NCCC(=O)Oc1ccc2ccc(=O)oc2c1; -0.362
COc1cc(C2C(C#N)=C(N)Oc3cc(C)n(CCN4CCOCC4)c(=O)c32)cc(OC)c1OC (stereo not drawn); -0.468
CC(=O)c1c(C)c2c(n1CCN(C)C)CCCC2; -0.521
COc1cccc(C2/C(=C(/O)c3ccc(C)cc3)C(=O)C(=O)N2Cc2ccco2)c1 (stereo not drawn); -0.512

Below are some compounds; for each one, tell me its fluorescence slope.
1. CCOc1ccc(-c2nnc3sc(-c4ccccc4OC)nn23)cc1
2. N#Cc1nc(-c2ccc(Cl)cc2)oc1N1CCCCC1
3. COc1ccccc1-c1nnc2sc(COc3ccccc3)nn12
4. C=CCn1c(-c2ccccc2)n[nH]c1=S

-- reply
1: -0.403; 2: -0.394; 3: -0.444; 4: -0.512

For each listed entry, give its fluorescence slope.
1. CN(C)c1nc(OCCOC(=O)Nc2ccc(Cl)cc2Cl)nc(N(C)C)n1
2. Fc1ccccc1-c1nc(N2CCCCC2)c2ccccc2n1
3. CCOC(=O)c1[nH]c2ccc(OC)cc2c1NC(=O)CCN1CCC(C)CC1

-- reply
1: -0.48; 2: -0.447; 3: -0.339
